- Test system: SF-268
- experiment: NCI tumour cell line growth inhibition, 48 h
Calls of active or inactive are those of the source. Cut-off read from the data, not from the text of the source: active = GI50 up to about 1.1 µM and inactive = higher.
readout type: GI50

- CC1=NN(c2nc(N)nc(CF)n2)C(C)(C)C1: > 100 µM (inactive)
- O=C(CCc1cc(O)ccc1O)OCCc1ccccc1: 5.64 µM (inactive)
- O=C(/C=C1\N=C(c2ccccc2)N(c2nc3ccc(Sc4ccccc4)cc3[nH]2)C1=O)/C=C/c1ccccc1: 31.4 µM (inactive)
- COc1cccc(N2C(=O)CSC2c2cc(OC)c(OC)c(OC)c2)c1 (stereo unspecified): > 100 µM (inactive)
- O=C1OCCC1C(O)C1c2ccccc2-c2ccccc21 (stereo unspecified): > 100 µM (inactive)
- C=CCNC(=O)NC1=CSC2=NC(=O)C3(NN12)c1ccccc1-c1ccccc13: > 10 µM (inactive)

====

- Test system: NCI-H226
- experiment: NCI tumour cell line growth inhibition, 48 h
Calls of active or inactive are those of the source. Cut-off read from the data, not from the text of the source: active = GI50 up to about 1.1 µM and inactive = higher.
readout type: GI50

• COc1ccc(C2c3cc4c(cc3OC(NNS(=O)(=O)c3ccc(C)cc3)C2C)OCO4)cc1 (stereo not drawn) = > 100 µM (inactive)
• Cc1cccc2c(=O)c3cccc([C@@H](C)C(=O)O)c3oc12 = > 100 µM (inactive)
• Cc1nc2c(N3CCCC3)nc(N3CCNCC3)nc2nc1NCc1ccccc1 = 13.1 µM (inactive)
• CC1(C)C(O)C[C@@H](O)[C@@]2(C)C1CC[C@]1(C)C2C[C@@H](O)[C@@H]2C([C@@]3(C)CC[C@@H](C(C)(C)O)O3)CCC21C (stereo partly drawn) = 19.5 µM (inactive)
• O=C(O)CSc1ccccc1C(=O)O = 99.1 µM (inactive)
• O=C1NC(SSC2=NNC3(C(=O)N2)c2ccccc2-c2ccccc23)=NNC12c1ccccc1-c1ccccc12 = > 10 µM (inactive)
• CC1(C)CCC(=O)c2c(O)ccc(O)c21 = > 100 µM (inactive)
• NC(=O)c1ccc(/N=N/O)nc1 = > 100 µM (inactive)

====

- System: SK-MEL-5
- experiment: NCI tumour cell line growth inhibition, 48 h
Activity calls are given as the source filed them. Rule as the data show it: active = GI50 up to about 1.1 µM and inactive = higher. Square brackets hold non-standard residues; d marks the D form. Peptide text beside a SMILES is read from it. * marks the point of attachment. ξ: configuration not given here. Propanoyl(3-(4-MeO-Ph)) = COc1ccc(CCC(=O)*)cc1; Thr(3ξ) = CC(O)[C@H](N)C(=O)O; dNMeL = CN[C@H](CC(C)C)C(=O)O; ξLac = CC(O)C(=O)O
# GI50 listing for each entry below
readout type: GI50

* NC(=O)c1ccc(/N=N/O)nc1 | > 100 µM (inactive)
* CCOc1ccc(/C=C2/C(=O)N/C(=N\C(C)=O)N2C)cc1 | > 100 µM (inactive)
* Cc1c(-c2ccccc2)c(C#N)c2nnn(C3CCCCC3)c(=O)n12 | 72.4 µM (inactive)
* COC1(C)C(=O)N2C1N(C(=O)OCc1ccccc1)CC2(C)C (stereo not given) | > 100 µM (inactive)
* CC[C@@]1(O)C(=O)OCc2c1cc1n(c2=O)Cc2c-1nc1ccccc1c2/C=N\c1ccc(N[C@@H]2c3cc4c(cc3[C@@H](c3cc(OC)c(O)c(OC)c3)[C@H]3C(=O)OC[C@@H]32)OCO4)cc1 | 0.0315 µM (active)
* O=C1c2cscc2C(=O)C1(O)O | > 100 µM (inactive)
* CS(=O)(=O)ON1C(=O)c2ccc(N)cc2C1=O | > 100 µM (inactive)
* CCOC(=O)C(=[N+]=[N-])C(=O)CN1C(=O)c2ccccc2C1=O | > 100 µM (inactive)
* COc1ccccc1NC(=O)C(=O)C1C(=O)Nc2ccccc2[S+]1[O-] (stereo not given) | > 100 µM (inactive)
* CNC(=S)N/N=C(\C(=N/NC(=S)NC)c1ccccn1)c1ccccn1 | 1.53 µM (inactive)
* CC(=O)Nc1nc(O)c2nc(C=O)cnc2n1 | > 100 µM (inactive)
* Cc1ccc(/C=N/NS(=O)(=O)c2ccccc2)cc1 | > 100 µM (inactive)
* COc1ccc(\N=C/C=C/C(=C/COC(C)=O)OC(C)=O)cc1 | 29 µM (inactive)
* Cc1cc(C)nc(NS(=O)(=O)c2ccc(NC(=O)c3cccc4cc5ccccc5nc34)cc2)n1 | 25.5 µM (inactive)
* Cc1cc(/N=C/c2ccc(F)cc2)n(-c2ccccc2)n1 | 52.5 µM (inactive)
* c1cc(-c2cn3ccsc3n2)ccn1 | > 100 µM (inactive)
* NC(=O)c1nnn(Cc2cc(Cl)c(C(=O)c3ccc(Cl)cc3)c(Cl)c2)c1N | 5.96 µM (inactive)
* O=C(O)C12C3C4C1C1C2C3C41I (stereo not given) | > 100 µM (inactive)
* CC(=N/NC(=S)N(C)C)/C(=N\NC(=S)N(C)C)c1ccccc1 | 1.64 µM (inactive)
* CC(=O)OC[C@@H]1[C@H]2CC(=O)O[C@H]2C[C@H]1OC(C)=O | > 100 µM (inactive)
* COc1ccc2c(c1)CC[C@@H]1C2CC[C@]2(C)C(=O)N(CCN(C)C)C(=O)CC12 (stereo not given in full) | 83.9 µM (inactive)
* NC(=O)C/C=C/CC(N)=O | > 100 µM (inactive)
* COC(=O)[C@@H](NC(=O)[C@@H](CC(C)C)N(C)C(=O)[C@@H]1CCCN1C(=O)C(C)O)C(C)OC(=O)CCc1ccc(OC)cc1 (stereo not given in full) (H-[ξLac]P[dNMeL][Thr(3ξ)](Propanoyl(3-(4-MeO-Ph)))-OMe) | > 100 µM (inactive)
* COc1ccc([C@H]2[C@H]3COC(=O)[C@H]3C(C#N)=C3Sc4ccccc4N32)cc1 | 21.1 µM (inactive)
* C/C(=N\[N+](C)(C)C)C(c1ccccc1)C1(c2ccccc2)C(c2ccccc2)=C1c1ccccc1 (stereo not given) | > 100 µM (inactive)
* CN(CCO)c1nc(=O)c2c(n1C1OC(CO)C(O)C(O)C1O)CCCC2 (stereo not given) | > 100 µM (inactive)
* C=C(OC1C(C)=C2C(C1OC(=O)CCCCCCC)C(C)(OC(C)=O)CC(OC(=O)CCC)C1(O)C2OC(=O)C1(C)O)/C(C)=C/C (stereo not given) | 0.0125 µM (active)
* Nc1nc(SCCNC(=O)CCc2ccc(O)c(I)c2)nc2c1ncn2C1OC(CO)C(O)C1O (stereo not given) | > 100 µM (inactive)
* NNC(=O)CC(=O)Nc1ccc(Cl)cc1 | > 100 µM (inactive)
* COC(=O)c1c(O)c2c(c3c1OC(C)(C)CC3)OC(C)(C)CC2 | 15 µM (inactive)
* CC1(C)[C@@H]2C[C@H]1c1cnc(-c3ccccn3)cc1[C@H]2C(O)[C@@H]1c2cc(-c3ccccn3)ncc2[C@H]2C[C@@H]1C2(C)C (stereo not given in full) | 0.0461 µM (active)
* CCCCCCc1cc2c(C)c(C)c(=O)oc2cc1OCCCOc1cc2oc(=O)c(C)c(C)c2cc1CCCCCC | > 100 µM (inactive)
* COc1ccc(Br)c(/C=N\c2cccc3cc(OC)c(OC)cc23)c1 | 17.5 µM (inactive)
* NC(=O)C(c1ccccc1)N1OC2C(=O)N(Cc3ccccc3)C(=O)C2C1c1cccc(Oc2ccc(Cl)cc2)c1 (stereo not given) | 15.9 µM (inactive)
* COc1ccc(OC)c(NC(=O)C(=O)C(C(=O)c2ccccc2F)C2OC(=O)c3ccccc32)c1 (stereo not given) | 79.1 µM (inactive)
* O=C(O)CCSCc1ccccc1 | > 100 µM (inactive)
* O=C(Cc1cccs1)N[C@@H]1C(=O)N2C(C(=O)OC(c3ccccc3)c3ccccc3)=C(CO)CS[C@H]12 | > 100 µM (inactive)
* NCC(=O)Nc1ccc(Cl)cc1C(=O)c1ccc[nH]1 | 49 µM (inactive)
* Cc1cc(C)cc(C(=N)c2ccccc2Cc2cccc3ccccc23)c1 | 16.6 µM (inactive)
* COP1(=O)OCc2cnccc2O1 (stereo not given) | > 100 µM (inactive)
